Where do these numbers come from? They come from the supplement of paper PMC8728848.

Target: Fuc(a1-3)[Gal(b1-4)]GlcNAc(b1-6)GalNAc
Assay: glycan array binding signal (z-score within array); higher = stronger binding
Settings: glycan notation: IUPAC condensed, linker removed
The sample as a whole holds a higher share of the strongest signals than the screen did.
Form field: glycan array binding signal (z-score) (one value per entry).
PARAMETER: glycan array binding signal (z-score)

BINDER	NUMERIC_READOUT
FGF1 (Homo sapiens), P05230 (protein) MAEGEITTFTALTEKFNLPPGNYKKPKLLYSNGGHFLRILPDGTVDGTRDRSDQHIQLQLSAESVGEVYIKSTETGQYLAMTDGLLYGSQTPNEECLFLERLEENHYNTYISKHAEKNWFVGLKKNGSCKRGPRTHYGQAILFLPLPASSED	1.04
Sp8391B-bot-388-20-388 (Bacteroides ovatus) (protein) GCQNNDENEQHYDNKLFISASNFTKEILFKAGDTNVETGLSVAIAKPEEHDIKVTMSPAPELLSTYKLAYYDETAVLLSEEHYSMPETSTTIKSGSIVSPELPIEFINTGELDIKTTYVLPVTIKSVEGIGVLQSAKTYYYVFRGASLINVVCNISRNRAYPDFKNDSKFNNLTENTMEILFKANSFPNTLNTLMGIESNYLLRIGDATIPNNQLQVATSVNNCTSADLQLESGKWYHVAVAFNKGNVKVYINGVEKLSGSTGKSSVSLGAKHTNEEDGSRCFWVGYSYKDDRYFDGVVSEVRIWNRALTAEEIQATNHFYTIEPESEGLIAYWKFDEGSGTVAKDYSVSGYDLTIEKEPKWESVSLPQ	4.03
